All figures here come from the supplement of paper PMC10567573.

B1: NEUROD6 (parent)
chain: YHSPELTTPPGHGTLDNSKSMKPY

Variants of: B1
Experiment: protein stability index of a GFP-peptide fusion (GPS, HEK-293T) (PSI 1-6); higher = more stable;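 also: lentivirally expressed fusions sorted by FACS into six bins by GFP to DsRed ratio, PSI derived from sequencing read proportions per bin multiplied by bin number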
Settings: c terminus: a fixed tail appended
quantity name: protein stability index
Give the value as a plain number.

Look over these answered cases.
seq text: YHSPELTTPPRHGTLDNSKSMKPY [G11R]
quantity name: protein stability index
recorded result: 2.29
//
seq text: YHSPELTTPPGHGTLDNSKSMLPY [K22L]
quantity name: protein stability index
recorded result: 2.2
//
seq text: YHSPELTTPPQHGTLDNSKSMKPY [G11Q]
quantity name: protein stability index
recorded result: 2.28
//
seq text: YHSPELTTPPGHGTLDVSKSMKPY [N17V]
quantity name: protein stability index
recorded result: 2.15

Exercise: Sample YHSPELTTPPGHGTTDNSKSMKPY [L15T] — what was its protein stability index?
Solution: 3.01

Exercise: Sample YHSPELTTPPGHGTLDPSKSMKPY [N17P] — what was its protein stability index?
Solution: 2.15

Exercise: Sample YHSPELTTPPWHGTLDNSKSMKPY [G11W] — what was its protein stability index?
Solution: 1.98

Exercise: Sample YHSPELTTPPGHGTLDFSKSMKPY [N17F] — what was its protein stability index?
Solution: 2.14

Exercise: Sample YHGPELTTPPGHGTLDNSKSMKPY [S3G] — what was its protein stability index?
Solution: 3.46

Exercise: Sample YHSPELTTPPGHGTLDNSKSMMPY [K22M] — what was its protein stability index?
Solution: 2.15

Exercise: Sample YHSPELTTPPGHGTLDNSKSMKYY [P23Y] — what was its protein stability index?
Solution: 1.77
